biological target: Hap1 (UniProt P0CE41); experiment: PBM E-score (8-mer binding enrichment) (E-score (-0.5 to 0.5)); higher = stronger / more preferred TF binding; conditions: protein concentration: 200 nM; construct: GST-DNA-binding domain
Sequence (P0CE41 whole entry, the tested form may be a part): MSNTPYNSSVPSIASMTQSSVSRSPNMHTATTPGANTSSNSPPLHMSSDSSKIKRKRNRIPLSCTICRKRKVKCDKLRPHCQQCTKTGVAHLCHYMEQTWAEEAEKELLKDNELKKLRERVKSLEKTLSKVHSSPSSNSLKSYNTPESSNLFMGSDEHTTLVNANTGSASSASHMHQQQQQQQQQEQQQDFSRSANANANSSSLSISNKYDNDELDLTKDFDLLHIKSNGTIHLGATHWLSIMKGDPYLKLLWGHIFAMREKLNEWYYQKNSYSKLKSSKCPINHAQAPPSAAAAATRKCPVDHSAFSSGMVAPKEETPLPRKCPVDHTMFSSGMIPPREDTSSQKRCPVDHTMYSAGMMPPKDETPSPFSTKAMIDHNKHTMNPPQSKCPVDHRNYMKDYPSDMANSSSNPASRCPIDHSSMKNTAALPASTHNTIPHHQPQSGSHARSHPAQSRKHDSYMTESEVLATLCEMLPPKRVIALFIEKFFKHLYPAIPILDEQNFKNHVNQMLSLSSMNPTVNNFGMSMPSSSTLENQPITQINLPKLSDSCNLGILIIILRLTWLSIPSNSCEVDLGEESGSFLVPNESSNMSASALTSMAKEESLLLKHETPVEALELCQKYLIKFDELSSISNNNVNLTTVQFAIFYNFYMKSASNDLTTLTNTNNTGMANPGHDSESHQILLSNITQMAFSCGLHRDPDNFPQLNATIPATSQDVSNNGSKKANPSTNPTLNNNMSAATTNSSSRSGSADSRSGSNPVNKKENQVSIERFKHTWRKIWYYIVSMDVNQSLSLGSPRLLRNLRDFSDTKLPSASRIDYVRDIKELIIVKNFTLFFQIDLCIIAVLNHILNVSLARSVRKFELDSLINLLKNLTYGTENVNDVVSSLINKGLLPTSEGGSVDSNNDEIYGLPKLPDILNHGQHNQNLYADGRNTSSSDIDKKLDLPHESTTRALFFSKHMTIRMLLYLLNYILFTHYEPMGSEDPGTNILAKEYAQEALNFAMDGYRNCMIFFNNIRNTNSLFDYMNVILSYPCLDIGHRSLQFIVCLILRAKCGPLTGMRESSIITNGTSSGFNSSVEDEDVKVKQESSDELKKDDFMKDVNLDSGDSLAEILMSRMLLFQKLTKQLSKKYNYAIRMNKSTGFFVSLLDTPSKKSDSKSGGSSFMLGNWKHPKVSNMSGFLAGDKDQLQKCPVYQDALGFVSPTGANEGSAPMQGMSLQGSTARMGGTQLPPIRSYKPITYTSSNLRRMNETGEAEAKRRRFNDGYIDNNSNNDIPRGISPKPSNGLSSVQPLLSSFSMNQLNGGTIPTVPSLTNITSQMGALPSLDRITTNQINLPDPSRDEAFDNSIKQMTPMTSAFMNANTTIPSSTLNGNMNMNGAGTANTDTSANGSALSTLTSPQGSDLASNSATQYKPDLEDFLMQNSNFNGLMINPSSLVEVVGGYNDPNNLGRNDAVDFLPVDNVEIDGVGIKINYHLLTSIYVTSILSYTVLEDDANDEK
In all, about 33,000 sequences were measured (“E-score (-0.5 to 0.5)”: median about -0.053, highest 2% from about 0.37 on). For the sample, the highest values were picked, then their nearest neighbours and some sequences at random.
Criterion: PBM E-score meeting or surpassing 0.3. Met: 1 (yes). Not met: 0 (no).

## Input Assess whether reported PBM E-score for CCGATCGG sits at 0.3 or higher.
## Output 1 (yes)

## Input Assess whether reported PBM E-score for AGCTTTGA sits at 0.3 or higher.
## Output 0 (no)

## Input Assess whether reported PBM E-score for ATCCGGTC sits at 0.3 or higher.
## Output 1 (yes)

## Input Assess whether reported PBM E-score for AGTACGGG sits at 0.3 or higher.
## Output 0 (no)

## Input Assess whether reported PBM E-score for CGGATGGA sits at 0.3 or higher.
## Output 0 (no)

## Input Assess whether reported PBM E-score for GTCCGGTA sits at 0.3 or higher.
## Output 1 (yes)

## Input Assess whether reported PBM E-score for CAGTCCAC sits at 0.3 or higher.
## Output 0 (no)

## Input Assess whether reported PBM E-score for CTGCTCCA sits at 0.3 or higher.
## Output 0 (no)

## Input Assess whether reported PBM E-score for CCGATCGA sits at 0.3 or higher.
## Output 1 (yes)

## Input Assess whether reported PBM E-score for AACCCGAC sits at 0.3 or higher.
## Output 1 (yes)

## Input Assess whether reported PBM E-score for AAGTGCAC sits at 0.3 or higher.
## Output 0 (no)

## Input Assess whether reported PBM E-score for CTCCGGCA sits at 0.3 or higher.
## Output 1 (yes)

## Input Assess whether reported PBM E-score for CGGTAATA sits at 0.3 or higher.
## Output 1 (yes)

## Input Assess whether reported PBM E-score for GACTGTAC sits at 0.3 or higher.
## Output 0 (no)

## Input Assess whether reported PBM E-score for ACCCCGAG sits at 0.3 or higher.
## Output 1 (yes)

## Input Assess whether reported PBM E-score for CCATAGGA sits at 0.3 or higher.
## Output 0 (no)

## Input Assess whether reported PBM E-score for AGAGTAAT sits at 0.3 or higher.
## Output 0 (no)

## Input Assess whether reported PBM E-score for CGTTTTAG sits at 0.3 or higher.
## Output 0 (no)

## Input Assess whether reported PBM E-score for GGGAGCAA sits at 0.3 or higher.
## Output 0 (no)

## Input Assess whether reported PBM E-score for ACCCCGAA sits at 0.3 or higher.
## Output 1 (yes)

## Input Assess whether reported PBM E-score for CGGATCCC sits at 0.3 or higher.
## Output 0 (no)

## Input Assess whether reported PBM E-score for GCTTAACC sits at 0.3 or higher.
## Output 0 (no)

## Input Assess whether reported PBM E-score for AGAGCAGA sits at 0.3 or higher.
## Output 0 (no)

## Input Assess whether reported PBM E-score for AACGAAGG sits at 0.3 or higher.
## Output 0 (no)

## Input Assess whether reported PBM E-score for CAGTTTCA sits at 0.3 or higher.
## Output 0 (no)

## Input Assess whether reported PBM E-score for TATCCAGA sits at 0.3 or higher.
## Output 0 (no)

## Input Assess whether reported PBM E-score for GAGGGAGC sits at 0.3 or higher.
## Output 0 (no)

## Input Assess whether reported PBM E-score for GCGTCACC sits at 0.3 or higher.
## Output 0 (no)

## Input Assess whether reported PBM E-score for ACCTTATC sits at 0.3 or higher.
## Output 0 (no)

## Input Assess whether reported PBM E-score for AACCCGAT sits at 0.3 or higher.
## Output 1 (yes)

## Input Assess whether reported PBM E-score for AGCGGCCG sits at 0.3 or higher.
## Output 1 (yes)

## Input Assess whether reported PBM E-score for CTGCAGAC sits at 0.3 or higher.
## Output 0 (no)

## Input Assess whether reported PBM E-score for CGCGGCCG sits at 0.3 or higher.
## Output 0 (no)

## Input Assess whether reported PBM E-score for CATCGCCC sits at 0.3 or higher.
## Output 0 (no)

## Input Assess whether reported PBM E-score for AACCCGAG sits at 0.3 or higher.
## Output 1 (yes)

## Input Assess whether reported PBM E-score for ACCTTGAG sits at 0.3 or higher.
## Output 0 (no)

## Input Assess whether reported PBM E-score for CGGATCCG sits at 0.3 or higher.
## Output 1 (yes)

## Input Assess whether reported PBM E-score for GGGTAATA sits at 0.3 or higher.
## Output 0 (no)

## Input Assess whether reported PBM E-score for ACATCTCC sits at 0.3 or higher.
## Output 0 (no)

## Input Assess whether reported PBM E-score for ACCTAGGC sits at 0.3 or higher.
## Output 0 (no)

## Input Assess whether reported PBM E-score for AGACGCGG sits at 0.3 or higher.
## Output 0 (no)

## Input Assess whether reported PBM E-score for TGCAGACA sits at 0.3 or higher.
## Output 0 (no)

## Input Assess whether reported PBM E-score for GGCGAACC sits at 0.3 or higher.
## Output 0 (no)

## Input Assess whether reported PBM E-score for ATGCCCCG sits at 0.3 or higher.
## Output 0 (no)

## Input Assess whether reported PBM E-score for ACGATCGG sits at 0.3 or higher.
## Output 0 (no)
